Below, each entry is listed alongside its reported inhibition at 10 µM.
test system: primary mouse cortical neurons; construct: primary cortical neurons, DIV 10; test: cells; parameters: Protection from NMDA-induced (30 uM, 10 min) neuronal death; Hoechst nuclear morphology by automated microscopy; conditions: Cortical neurone, 20 h, read-out: % inhibition, inhibition of NMDA-induced cell death (protection score), 30 min pre-treatment
# unit: % | format: bare number

Use these answered entries as a reference point.
CCCC1O[C@@H]2C[C@H]3[C@@H]4CCC5=CC(=O)C=C[C@]5(C)[C@H]4[C@@H](O)C[C@]3(C)[C@]2(C(=O)CO)O1 (stereo partly drawn) [Budesonide]    -9.49
CCc1cccc2c3c([nH]c12)C(CC)(CC(=O)O)OCC3 (stereo not drawn) [Etodolac (Lodine)]    9.68
CC(C)C[C@H](NC(=O)[C@H](Cc1ccccc1)NC(=O)c1cnccn1)B(O)O [Bortezomib (Velcade)]    -4.79
COc1ccc(-c2oc3c(CC=C(C)C)c(O[C@@H]4O[C@H](CO)[C@@H](O)[C@H](O)[C@H]4O)cc(O)c3c(=O)c2O[C@@H]2O[C@@H](C)[C@H](O)[C@@H](O)[C@H]2O)cc1 [Icariin]    -2.42
Nc1ncnc2c1ncn2[C@@H]1O[C@H](COP(=O)(O)OP(=O)(O)OP(=O)(O)O)[C@@H](O)[C@H]1O [ATP (Adenosine-Triphosphate)]    0.248

// Input: C[C@@H]1CC[C@@]2(OC1)O[C@H]1C[C@H]3[C@@H]4CC=C5C[C@@H](O)CC[C@]5(C)[C@H]4CC[C@]3(C)[C@H]1[C@@H]2C [Diosgenin] . Output its inhibition at 10 µM only.
-1.47

Assign inhibition at 10 µM to the following record: COc1cc([C@@H]2c3cc4c(cc3[C@@H](O[C@@H]3O[C@@H]5CO[C@@H](C)O[C@H]5[C@H](O)[C@H]3O)[C@H]3COC(=O)[C@H]23)OCO4)cc(OC)c1O [Etoposide (VP-16)]
-11.8

Please give the documented inhibition at 10 µM of CC=CC1=C(C(=O)O)N2C(=O)[C@@H](NC(=O)[C@H](N)c3ccc(O)cc3)[C@H]2SC1 (mixture of isomers) [Cefprozil hydrate (Cefzil)]
0.674

Specify reported inhibition at 10 µM for the compound shown: CN(C)C(=O)Oc1cccc([N+](C)(C)C)c1 [Neostigmine bromide (Prostigmin)]
-0.504

Output measured inhibition at 10 µM for this item: O=c1[nH]cnc2c1ncn2[C@@H]1O[C@H](CO)[C@@H](O)[C@H]1O [Inosine]
19.8

Give me measured inhibition at 10 µM, please, for this compound: CO[C@H]1/C=C/O[C@@]2(C)Oc3c(C)c(O)c4c(O)c(c(/C=N/N5CCN(C6CCCC6)CC5)c(O)c4c3C2=O)NC(=O)/C(C)=C\C=C\[C@H](C)[C@H](O)[C@@H](C)[C@@H](O)[C@@H](C)[C@H](OC(C)=O)[C@@H]1C [Rifapentine (Priftin)]
9.26

Look up and report measured inhibition at 10 µM for this entry: Cn1c(=O)c2c(ncn2CC(O)CO)n(C)c1=O (stereo not drawn) [Dyphylline (Dilor)]
-0.361

###

system: primary mouse cortical neurons; construct: primary cortical neurons, DIV 10; assay: cells; parameters: Protection from NMDA-induced (30 uM, 10 min) neuronal death; Hoechst nuclear morphology by automated microscopy; settings: Cortical neurone, 20 h, read-out: % inhibition, inhibition of NMDA-induced cell death (protection score), 30 min pre-treatment
Where a name gives a salt, the structure may show the parent alone.
Catalogue of inhibition at 10 µM values
Dear colleague, please return just the value in %, with no unit written.

O=c1c(-c2ccc(O)cc2)coc2c([C@@H]3O[C@H](CO)[C@@H](O)[C@H](O)[C@H]3O)c(O)ccc12    -3.03
Nc1nc(=O)[nH]cc1F    3.84
COc1ccc([C@@H]2CC(=O)c3c(O)cc(O[C@@H]4O[C@H](CO)[C@@H](O)[C@H](O)[C@H]4O[C@@H]4O[C@@H](C)[C@H](O)[C@@H](O)[C@H]4O)cc3O2)cc1O    4.46

Please report the measured inhibition at 10 µM for O=C(OC1C[C@H]2CC[C@@H](C1)[N+]21CCCC1)C(O)(c1ccccc1)c1ccccc1 (some centres unmarked) [Trospium chloride (Sanctura)]
7.49

Supply inhibition at 10 µM value. Item: C[C@H]1O[C@H](O[C@H]2[C@H](O)[C@@H](O)[C@@H](O[C@@H]([C@H](O)[C@@H](O)C=O)[C@H](O)CO)O[C@@H]2CO)[C@H](O)[C@@H](O)[C@@H]1N[C@H]1C=C(CO)[C@@H](O)[C@H](O)[C@H]1O
4.12

Respond only with inhibition at 10 µM recorded for C[C@]12CCC(=O)C=C1CC[C@@H]1[C@@H]2[C@@H](O)C[C@@]2(C)[C@H]1CC[C@]2(O)C(=O)CO [Hydrocortisone (Cortisol)]
4.6

Give recorded inhibition at 10 µM. Nc1nc(Cl)nc2c1ncn2[C@@H]1O[C@H](CO)[C@@H](O)[C@@H]1F
-10.2

Recall and state the measured inhibition at 10 µM for CC(=O)Oc1cc2c(s1)CCN(C(C(=O)C1CC1)c1ccccc1F)C2 (centres unmarked) [Prasugrel (Effient)] .
-7.75

Give inhibition at 10 µM for the following compound: O=C(O)/C=C/c1ccc(Cn2ccnc2)cc1
-9.99

Give the reported inhibition at 10 µM for this compound. CN(C)Cc1c[nH]c2ccccc12
-3.83

Return inhibition at 10 µM (reported value) for this compound: O=C1CCC[C@@H]2[C@H]3CCC[N@+]4([O-])CCC[C@@H](CN12)[C@@H]34 [Oxymatrine (Matrine N-oxide)]
-1.44

Entry O=C(O[C@@H]1Cc2c(O)cc(O)cc2O[C@@H]1c1cc(O)c(O)c(O)c1)c1cc(O)c(O)c(O)c1 [(-)-Epigallocatechin gallate] needs its inhibition at 10 µM filled in; supply it.
4.13

State its inhibition at 10 µM for this compound: Cc1coc2c1C(=O)C(=O)c1c-2ccc2c(C)cccc12
-5.27

Specify reported inhibition at 10 µM for the compound shown: C[C@@H](O)[C@H]1C(=O)N2C(C(=O)O)=C(S[C@@H]3CN[C@H](CNS(N)(=O)=O)C3)[C@H](C)[C@H]12 [Doripenem Hydrate]
-0.0213

Return inhibition at 10 µM (reported value) for this compound: C[C@@H](O)[C@H]1C(=O)N2C(C(=O)[O-])=C(SC3Cn4cnc[n+]4C3)[C@H](C)[C@H]12 (some centres unmarked)
3.3

Look up and state reported inhibition at 10 µM for COc1ccc2[nH]c([S@@+]([O-])Cc3ncc(C)c(OC)c3C)nc2c1 [Esomeprazole sodium (Nexium)]
21.3

Provide inhibition at 10 µM value for the following compound: O=S(=O)(O)CCS
-0.811

Please give the documented inhibition at 10 µM of CC(C)NCC(O)c1ccc(O)c(O)c1 (centres unmarked) [Isoprenaline hydrochloride]
-0.7

Give inhibition at 10 µM for the following compound: Nc1nc(F)nc2c1ncn2[C@@H]1O[C@H](CO)[C@@H](O)[C@@H]1O
16.2

// Input: CC1(C)CCC[C@]2(C)[C@H]3CC(=O)O[C@]3(C)CC[C@@H]12 [Sclareolide (Norambreinolide)] . Output its inhibition at 10 µM only.
28.8

###

# inhibition at 10 µM annotations
Test system: primary mouse cortical neurons
Construct: primary cortical neurons, DIV 10
Assay: cells
Design: Protection from NMDA-induced (30 uM, 10 min) neuronal death; Hoechst nuclear morphology by automated microscopy
Settings: Cortical neurone, 20 h, read-out: % inhibition, inhibition of NMDA-induced cell death (protection score), 30 min pre-treatment
Protocol: On DIV 10, compounds were applied to the cells reaching an end concentration of 10 μM. Cells were incubated for 30 min at 37 °C, 5% CO2 before adding NMDA (30 μM). Cells were incubated for another 10 min in the incubator, then washed twice with defined minimal medium containing 10 μM of the respective compound and incubated for an additional 20 h before readout. […] The survival rate S was calculated by dividing the number of living cells by the total number of cells. […]
Counter-ions that a name gives are not always drawn.
Note: unit % is implicit; provide only the numeric part.

C#C[C@]1(O)CC[C@H]2[C@@H]3CCC4=CC(=O)CC[C@@H]4[C@H]3CC[C@@]21CC [Levonorgestrel (Levonelle)]    -1.05
Cn1ccnc1S [Methimazole (Tapazole, Northyx)]    15.5

Read off the recorded inhibition at 10 µM for C[C@@H](CN1CC(=O)NC(=O)C1)N1CC(=O)NC(=O)C1 [Dexrazoxane Hydrochloride]
-16.2

Please report inhibition at 10 µM for the following compound: COc1ccc([C@H]2CNC(=O)C2)cc1OC1CCCC1 [S-(+)-Rolipram]
-1.23

###

List of inhibition at 10 µM values.
tested on: primary mouse cortical neurons; construct: primary cortical neurons, DIV 10; experiment: cells; design: Protection from NMDA-induced (30 uM, 10 min) neuronal death; Hoechst nuclear morphology by automated microscopy; details: Cortical neurone, 20 h, read-out: % inhibition, inhibition of NMDA-induced cell death (protection score), 30 min pre-treatment
Your answer should be a plain number; it is taken to be in %.

CC(=O)SCC(Cc1ccccc1)C(=O)NCC(=O)OCc1ccccc1 (stereo not shown) [Racecadotril (Acetorphan)]    -7.37
CCC1(c2ccccc2)C(=O)NCNC1=O [Primidone (Mysoline)]    27.9

Give inhibition at 10 µM for Nc1nc2[nH]cc(CCc3ccc(C(=O)N[C@@H](CCC(=O)O)C(=O)O)cc3)c2c(=O)[nH]1 [Pemetrexed] tested on primary mouse cortical neurons.
0.519

Fill: inhibition at 10 µM (primary mouse cortical neurons) for this compound COC(=O)[C@H](c1ccccc1Cl)N1CCc2sccc2C1 [Clopidogrel (Plavix)]
-12

Under primary mouse cortical neurons: report inhibition at 10 µM of OC[C@H]1O[C@@H](OCCc2ccc(O)cc2)[C@H](O)[C@@H](O)[C@@H]1O [Salidroside (Rhodioloside)] .
11.2

Under primary mouse cortical neurons: report inhibition at 10 µM of C[C@@H]1O[C@@H](OC[C@H]2O[C@@H](Oc3c(-c4ccc(OCCO)c(OCCO)c4)oc4cc(OCCO)cc(O)c4c3=O)[C@H](O)[C@@H](O)[C@@H]2O)[C@H](O)[C@H](O)[C@H]1O [Troxerutin] .
23.8

Fill: inhibition at 10 µM (primary mouse cortical neurons) for this compound COc1ccc2c(c1)c(CC(=O)O)c(C)n2C(=O)c1ccc(Cl)cc1 [Indomethacin (Indocid, Indocin)]
3.41
